Values were extracted from PubChem BioAssay (NCATS).

Tested on: TAB165
Experiment: qHTS profiling for inhibitors of Plasmodium falciparum proliferation (AID 504749); note: nearly all actives have a fitted effect of over 60% in size
Conditions: P. falciparum in erythrocytes, SYBR Green DNA, 72 h; series mostly up to 28.7 µM
Description: NIH National Institute of Allergy and Infectious Diseases [NIAID] NIH Chemical Genomics Center [NCGC] […] Because mature erythrocytes lack DNA, only Plasmodium-derived DNA is detected. NCGC Assay Protocol Summary: The SYBR Green viability assay was adapted from a method described previously (Plouffe et al., 2008). […] The following morning, fluorescence intensity at 485(14) nm excitation and 535(25) nm emission wavelengths was measured on an EnVision (Perkin Elmer) plate reader. […]
Records with an inconclusive call do not appear. The source made the active and inactive calls. Calls come from the whole dose curve; as a rule, active = well fitted inhibition curve with a large enough effect; inconclusive = small, poorly fitted or top-dose-only effect; inactive = flat fitted curve, though single readings scatter.
// one of label 1 for active, label 0 for inactive, no free text

What did this assay record as the result for `O=c1[nH]cc(N(CCCl)CCCl)c(=O)[nH]1` ?
label 0

What did this assay record as the result for `C[CH2][Hg][S]c1ccccc1C(=O)O` ?
label 1

What did this assay record as the result for O=C(NCNC(=O)NC1C(=O)NC(=O)N1CO)NC1C(=O)NC(=O)N1CO (stereo unspecified) ?
label 0

What did this assay record as the result for `O=C(CCl)c1ccc(Oc2ccc(C(=O)CCl)cc2)cc1` ?
label 0

What did this assay record as the result for `c1cc2c(c(NC3=NCCN3)c1)CCCC2` ?
label 0

What did this assay record as the result for CN1C2CCC1CC(OC(c1ccccc1)c1ccc(Cl)cc1)C2 (stereo unspecified) ?
label 1

What did this assay record as the result for COc1ccc(OC)c(C(O)C(C)N)c1 (stereo unspecified) ?
label 0

What did this assay record as the result for `ClC=C(Cl)Cl` ?
label 0

What did this assay record as the result for C[C@H]1CC[C@@H]2[C@@H](C)[C@H]3[C@H](C[C@H]4[C@@H]5CC=C6CC(O[C@@H]7O[C@H](CO)[C@H](O)[C@H](O[C@@H]8O[C@H](CO)[C@@H](O)[C@H](O)[C@H]8O)[C@H]7O[C@H]7O[C@@H](C)[C@H](O)[C@@H](O)[C@H]7O)CC[C@]6(C)[C@H]5CC[C@]34C)N2C1 (stereo partly specified) ?
label 0

What did this assay record as the result for `C=CCN=C=S` ?
label 0

What did this assay record as the result for CNC(C)C(O)c1ccc(O)cc1 (stereo unspecified) ?
label 0

What did this assay record as the result for `O=C/C=C/c1ccccc1` ?
label 0

What did this assay record as the result for `CCOC(=O)c1ccccc1C(=O)OCC` ?
label 0

What did this assay record as the result for `O=[N+]([O-])C(Br)(CO)CO` ?
label 0

What did this assay record as the result for OC(c1ccccc1)(c1ccccc1)C1CN2CCC1CC2 (stereo unspecified) ?
label 0

What did this assay record as the result for `CC(C)Nc1ccc(Nc2ccccc2)cc1` ?
label 1

What did this assay record as the result for CCCCNCC(O)c1ccc(O)cc1 (stereo unspecified) ?
label 0

What did this assay record as the result for CCC(N)Cc1c[nH]c2ccccc12 (stereo unspecified) ?
label 0

What did this assay record as the result for `O=S(=O)(O)c1cc(O)ccc1O` ?
label 0

What did this assay record as the result for `CCOP(=O)(OCC)O/C(=C/Cl)c1ccc(Cl)cc1Cl` ?
label 0

What did this assay record as the result for `c1ccc(C2(N3CCCC3)CCCCC2)cc1` ?
label 1

What did this assay record as the result for CCCC(C)C1(CC)C(=O)NC(=O)NC1=O (stereo unspecified) ?
label 0

What did this assay record as the result for CN1[C@@H]2CC[C@H]1CC(OC1c3ccccc3CCc3ccccc31)C2 (stereo partly specified) ?
label 1

What did this assay record as the result for `CCCCCCCCCC(=O)O[C@H]1CC[C@H]2[C@@H]3CCC4=CC(=O)CC[C@]4(C)[C@H]3CC[C@]12C` ?
label 0

What did this assay record as the result for `CCCCCl` ?
label 0

What did this assay record as the result for ClCC1CO1 (stereo unspecified) ?
label 0

What did this assay record as the result for C#CC(C)(O)CC (stereo unspecified) ?
label 0

What did this assay record as the result for O=C(CS(=O)C(c1ccccc1)c1ccccc1)NO (stereo unspecified) ?
label 0

What did this assay record as the result for CCCC(=O)OC(C(Cl)(Cl)Cl)P(=O)(OC)OC (stereo unspecified) ?
label 0

What did this assay record as the result for ClC1C(Cl)C(Cl)C(Cl)C(Cl)C1Cl (stereo unspecified) ?
label 0

What did this assay record as the result for CC(N)Cc1ccc(O)cc1 (stereo unspecified) ?
label 0

What did this assay record as the result for CC(=O)OC1CN2CCC1CC2 (stereo unspecified) ?
label 0

What did this assay record as the result for `CC(=O)O[C@H]1CC[C@H]2[C@@H]3CCC4=CC(=O)CCC4=C3C=C[C@]12C` ?
label 0

What did this assay record as the result for `Cc1sc2ccccc2c1CC1=NCCN1` ?
label 0

What did this assay record as the result for `C/C(=C\c1csc(C)n1)[C@@H]1C[C@@H]2O[C@]2(C)CCC[C@H](C)[C@H](O)[C@@H](C)C(=O)C(C)(C)[C@@H](O)CC(=O)O1` ?
label 1

What did this assay record as the result for `CC(C)(C)c1cc(O)ccc1O` ?
label 1

What did this assay record as the result for C=CCC1(C(C)CCC)C(=O)N=C(S)NC1=O (stereo unspecified) ?
label 0

What did this assay record as the result for `CCC(C)(S(=O)(=O)CC)S(=O)(=O)CC` ?
label 0

What did this assay record as the result for `Cn1sc(Cl)cc1=O` ?
label 0

What did this assay record as the result for `Clc1ccccc1Cl` ?
label 0

What did this assay record as the result for `O=CC=O` ?
label 0

What did this assay record as the result for `O=[N+]([O-])c1ccccc1` ?
label 0

What did this assay record as the result for `CCC(=O)O[C@@](Cc1ccccc1)(c1ccccc1)[C@@H](C)CN(C)C` ?
label 0

What did this assay record as the result for CN1c2ccccc2C(NCCCCCCC(=O)O)c2ccc(Cl)cc2S1(=O)=O (stereo unspecified) ?
label 0

What did this assay record as the result for `[O]=[Cd]` ?
label 0

What did this assay record as the result for `ClC(Cl)(Cl)Cl` ?
label 0

What did this assay record as the result for `CNC(=O)OCC[N+](C)(C)C` ?
label 0

What did this assay record as the result for `O=C1CCO1` ?
label 0

What did this assay record as the result for `S=C=S` ?
label 0

What did this assay record as the result for `O=c1[nH]c(=O)n(Cl)c(=O)n1Cl` ?
label 0

What did this assay record as the result for `Clc1ccc(Cl)cc1` ?
label 0

What did this assay record as the result for CC(C)(O)C1C2OC(=O)C1C1(O)CC3OC34C(=O)OC2C14C (stereo unspecified) ?
label 0

What did this assay record as the result for CNC1(c2ccccc2Cl)CCCCC1=O (stereo unspecified) ?
label 0

What did this assay record as the result for `C[C@]12CCC(=O)C[C@@H]1CC[C@@H]1[C@@H]2CC[C@]2(C)[C@@H](O)CC[C@@H]12` ?
label 0

What did this assay record as the result for C=CCN1CCC23c4c5ccc(O)c4O[C@H]2C(=O)CC[C@@]3(O)C1C5 (stereo partly specified) ?
label 0

What did this assay record as the result for `CCC1(c2ccccc2)C(=O)NC(=O)NC1=O` ?
label 0
